target: C5aR (Homo sapiens (Human), UniProt P21730); assay: Chemotaxis assay using U937 cells (C5aR mediated migration); conditions: read-out: Mig IC50
Sequence (P21730 whole entry): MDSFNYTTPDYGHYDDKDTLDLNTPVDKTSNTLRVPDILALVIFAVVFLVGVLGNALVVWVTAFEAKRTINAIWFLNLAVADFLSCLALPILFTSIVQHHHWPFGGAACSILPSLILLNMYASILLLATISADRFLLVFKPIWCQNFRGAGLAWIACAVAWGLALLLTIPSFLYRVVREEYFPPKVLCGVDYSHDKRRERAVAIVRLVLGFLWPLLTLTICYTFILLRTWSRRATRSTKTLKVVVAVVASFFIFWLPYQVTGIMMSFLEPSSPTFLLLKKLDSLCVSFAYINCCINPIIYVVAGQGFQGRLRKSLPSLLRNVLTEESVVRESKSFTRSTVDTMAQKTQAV
Entries annotated with measured IC50

Inquiry: Param item = Cc1cccc(OCC(C)C)c1-n1nc2c(c1-c1ccc(NC(N)=O)cc1)CN(c1cc(C(F)(F)F)ccc1C(F)(F)F)CC2 ; retrieve measured IC50.
Reply text: ≤ 5 nM

---

molecular target: UniProt:P21730; experiment: Chemotaxis assay using U937 cells (C5aR mediated migration); conditions: read-out: Mig IC50
pIC50: −log10 of the molar value.
Entries annotated with measured pIC50

| compound | pIC50 |
| --- | --- |
| Cc1cccc(F)c1-n1nc2c(c1-c1ccc(N)cc1)CN(c1ccccc1C(C)C)CC2 [Example 1.464] | 6.30 to 7.30 |

Inquiry: Param item = Cc1cccc(OCC(C)C)c1-n1nc2c(c1-c1ccc(N)cc1)CN(c1ccccc1C(C)(C)C)CC2 [Example 1.455] ; retrieve measured pIC50.
Reply text: 7.30 to 8.30

Inquiry: Param item = CCc1cccc(CC)c1-n1nc2c(c1-c1cc(F)c(NC(N)=O)cc1F)CN(CC1CCOC1)CC2 (stereo not shown) [Example 1.020] ; retrieve measured pIC50.
Reply text: 7.30 to 8.30

Inquiry: Param item = CCc1cccc(CC)c1-n1nc2c(c1-c1cc(F)c(NC(N)=O)cc1F)CN(C(=O)c1ccnn1C)C(C)(C)C2 [Example 1.005] ; retrieve measured pIC50.
Reply text: 7.30 to 8.30

Inquiry: Param item = CCc1cccc(CC)c1-n1nc2c(c1-c1cc(F)c(NC(=O)CO)cc1F)CN(Cc1ccc(C(F)(F)F)cc1C(F)(F)F)CC2 [Example 1.002] ; retrieve measured pIC50.
Reply text: 6.30 to 7.30

Inquiry: Param item = Cc1cccc(OCC(C)C)c1-n1nc2c(c1-c1ccc(NC(N)=O)c(F)c1)CN(CC(C)C)CC2 [Example 1.273] ; retrieve measured pIC50.
Reply text: 7.30 to 8.30

Inquiry: Param item = Cc1cccc(OCC(C)C)c1-n1nc2c(c1-c1cc(F)c(NC(N)=O)cc1F)CN(c1ncc(F)cn1)CC2 [Example 1.159] ; retrieve measured pIC50.
Reply text: ≥ 8.30

These data points were gathered from patent US11478460B2.
